- targetSystem: EED protein (full-length, His6 tag) binding to H3K27me3 polypeptide (Homo sapiens)
- Construct: The full-length EED protein (441 amino acids) with His6 tag
- Sequence (O75530 whole entry): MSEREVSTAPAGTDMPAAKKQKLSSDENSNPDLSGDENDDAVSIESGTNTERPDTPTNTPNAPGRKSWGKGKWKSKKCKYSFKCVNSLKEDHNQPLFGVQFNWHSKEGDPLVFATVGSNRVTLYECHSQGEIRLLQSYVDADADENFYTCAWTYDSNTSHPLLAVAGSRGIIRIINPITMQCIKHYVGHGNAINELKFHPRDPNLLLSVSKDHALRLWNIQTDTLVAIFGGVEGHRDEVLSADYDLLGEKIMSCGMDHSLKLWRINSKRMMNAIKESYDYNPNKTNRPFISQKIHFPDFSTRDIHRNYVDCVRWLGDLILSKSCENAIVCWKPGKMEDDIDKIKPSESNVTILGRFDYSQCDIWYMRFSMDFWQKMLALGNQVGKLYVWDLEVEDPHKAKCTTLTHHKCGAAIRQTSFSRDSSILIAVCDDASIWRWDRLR
- experimentSummary: AlphaScreen evaluation of blocking the binding of EED to H3K27Me3
- settings: EED / biotinylated H3K27me3 peptide competition
measurementLabel: IC50 (µM)
Entry rule: numbers only, all in µM.

INSERT INTO assay_data (compound, measurementlabel, value) VALUES
  ('Fc1ccc2c(c1CNc1ncc(-c3cccn4ncnc34)c3nncn13)CCO2', 'IC50', 0.0047),
  ('CC(C)(O)c1c(F)cc(-c2cnc(NCc3c(F)ccc4c3CCO4)n3cnnc23)c2ncnn12', 'IC50', 0.0057),
  ('CC(O)(CF)c1ccc(-c2cnc(NCc3c(F)ccc4c3CCO4)n3cnnc23)c2ncnn12 (single isomer, unassigned) [Compound g]', 'IC50', 0.004),
  ('CC(O)(CF)c1ccc(-c2cnc(NCc3c(F)ccc4c3CCO4)n3cnnc23)c2ncnn12 (single isomer, unassigned) [Compound h]', 'IC50', 0.0048),
  ('CCC(O)c1ccc(-c2cnc(NCc3c(F)ccc4c3CCO4)n3cnnc23)c2ncnn12 (single isomer, unassigned) [Compound e]', 'IC50', 0.0064),
  ('CC(O)(c1ccc(-c2cnc(NCc3c(F)ccc4c3CCO4)n3cnnc23)c2ncnn12)C(F)(F)F (single isomer, unassigned) [Compound c]', 'IC50', 0.0025),
  ('CC(O)(c1ccc(-c2cnc(NCc3c(F)ccc4c3CCO4)n3cnnc23)c2ncnn12)C(F)F (stereo not shown)', 'IC50', 0.0051),
  ('CC(C)(O)Cc1ccc(-c2cnc(NCc3c(F)ccc4c3CCO4)n3cnnc23)c2ncnn12', 'IC50', 0.0113),
  ('CCC(C)(O)c1ccc(-c2cnc(NCc3c(F)ccc4c3CCO4)n3cnnc23)c2ncnn12 (stereo not shown)', 'IC50', 0.0075);

Shift focus to the following entry.
Lookup: Provide value of IC50 for this record tested with EED protein (full-length, His6 tag) binding to H3K27me3 polypeptide (Homo sapiens): CC(O)(c1ccc(-c2cnc(NCc3c(F)ccc4c3CCO4)n3cnnc23)c2ncnn12)C(F)(F)F (stereo not shown)
Found: 0.0048

----------
- targetSystem: EED protein (full-length, His6 tag) binding to H3K27me3 polypeptide (Homo sapiens)
- Construct: The full-length EED protein (441 amino acids) with His6 tag
- experimentSummary: AlphaScreen evaluation of blocking the binding of EED to H3K27Me3
- settings: EED / biotinylated H3K27me3 peptide competition
# 1.0 = IC50 below 0.007 µM (exclusive); 0.0 = IC50 at/above 0.007 µM

INSERT INTO results (compound, targetsystem, assignedlabel) VALUES
  ('CCC(O)c1ccc(-c2cnc(NCc3c(F)ccc4c3CCO4)n3cnnc23)c2ncnn12 (stereo not shown)', 'EED protein (full-length, His6 tag) binding to H3K27me3 polypeptide (Homo sapiens)', 1.0);

Lookup: API: query returns whether the compound falls strictly under 0.007 µM in IC50. Query: Cc1ccc(-c2cnc(NCc3c(F)ccc4c3[C@H]3C[C@H]3O4)n3cnnc23)c2ncnn12
Found: 1.0

Lookup: For CC(O)(c1ccc(-c2cnc(NCc3c(F)ccc4c3CCO4)n3cnnc23)c2ncnn12)C(F)(F)F (single isomer, unassigned) [Compound d] , is the recorded IC50 below the cut-off of 0.007 µM?
Found: 1.0

----------
- System: B-cell non-Hodgkin lymphoma cells KARPAS-422
- experimentSummary: Cell proliferation analysis, KARPAS-422, 13 days, CellTiter-Glo
- Format: cell-based, Human
- settings: Homo sapiens, KARPAS-422, 312 h, Karpas-422, 13 days
# IC50 values compiled below
Report only the number, with the unit µM understood.

INSERT INTO results (compound, unit, value) VALUES
  ('CC(O)(c1ccc(-c2cnc(NCc3c(F)ccc4c3CCO4)n3cnnc23)c2ncnn12)C(F)(F)F (centres unmarked)', 'µM', 0.0088),
  ('CCC(C)(O)c1ccc(-c2cnc(NCc3c(F)ccc4c3CCO4)n3cnnc23)c2ncnn12 (single isomer, unassigned) [Compound a]', 'µM', 0.0041),
  ('CCC(O)c1ccc(-c2cnc(NCc3c(F)ccc4c3CCO4)n3cnnc23)c2ncnn12 (centres unmarked)', 'µM', 0.0032),
  ('OC(CF)(CF)c1ccc(-c2cnc(NCc3c(F)ccc4c3CCO4)n3cnnc23)c2ncnn12', 'µM', 0.0041),
  ('CC(O)(c1ccc(-c2cnc(NCc3c(F)ccc4c3CCO4)n3cnnc23)c2ncnn12)C(F)(F)F (single isomer, unassigned) [Compound c]', 'µM', 0.0095),
  ('OC(c1ccc(-c2cnc(NCc3c(F)ccc4c3CCO4)n3cnnc23)c2ncnn12)(C(F)F)C(F)F', 'µM', 0.0049),
  ('CC(C)(O)c1c(F)cc(-c2cnc(NCc3c(F)ccc4c3CCO4)n3cnnc23)c2ncnn12', 'µM', 0.0146),
  ('Cc1cc(-c2cnc(NCc3c(F)ccc4c3CCO4)n3cnnc23)c2ncnn2c1C(C)(C)O', 'µM', 0.0087),
  ('CCC(C)(O)c1ccc(-c2cnc(NCc3c(F)ccc4c3CCO4)n3cnnc23)c2ncnn12 (centres unmarked)', 'µM', 0.0052),
  ('OC1(c2ccc(-c3cnc(NCc4c(F)ccc5c4CCO5)n4cnnc34)c3ncnn23)CC1', 'µM', 0.0033);

Lookup: Quick check: IC50 of CC(C)(O)c1ncc(-c2cnc(NCc3c(F)ccc4c3CCO4)n3cnnc23)c2ncnn12 ?
Found: 0.0066

Lookup: State the recorded IC50 for this entry: CCC(O)(CC)c1ccc(-c2cnc(NCc3c(F)ccc4c3CCO4)n3cnnc23)c2ncnn12
Found: 0.0077

Lookup: Report IC50 for OC1(c2ccc(-c3cnc(NCc4c(F)ccc5c4CCO5)n4cnnc34)c3ncnn23)CCC1 please.
Found: 0.0016

Lookup: Quick one: IC50 of CC(O)(CF)c1ccc(-c2cnc(NCc3c(F)ccc4c3CCO4)n3cnnc23)c2ncnn12 (centres unmarked) ?
Found: 0.0022

----------
Each entry below lists one item and its recorded IC50 value.
- Tested on: trimethylation level of histone H3K27 in G401 cells
- experimentSummary: ELISA (H3K27 trimethylation) analysis in G401 cells
- Assay type: cell-based
- settings: 72 hours, H3K27me3 normalized by H3
Use µM as the unit, but write only the number.

Sample records with IC50:
INSERT INTO measurements (compound, measurementlabel, unit, value) VALUES
  ('CCC(O)c1ccc(-c2cnc(NCc3c(F)ccc4c3CCO4)n3cnnc23)c2ncnn12 (single isomer, unassigned) [Compound f]', 'IC50', 'µM', 0.0013),
  ('CCC(C)(O)c1ccc(-c2cnc(NCc3c(F)ccc4c3CCO4)n3cnnc23)c2ncnn12 (single isomer, unassigned)', 'IC50', 'µM', 0.0017),
  ('CC(O)(CF)c1ccc(-c2cnc(NCc3c(F)ccc4c3CCO4)n3cnnc23)c2ncnn12 (single isomer, unassigned)', 'IC50', 'µM', 0.0012);

Please find the next compound below.
Lookup: # query: IC50 of entry CCC(O)c1ccc(-c2cnc(NCc3c(F)ccc4c3CCO4)n3cnnc23)c2ncnn12 (single isomer, unassigned) [Compound e]
Found: 0.0004

----------
- targetSystem: EED protein (full-length, His6 tag) binding to H3K27me3 polypeptide (Homo sapiens)
- Construct: The full-length EED protein (441 amino acids) with His6 tag
- experimentSummary: AlphaScreen evaluation of blocking the binding of EED to H3K27Me3
- settings: EED / biotinylated H3K27me3 peptide competition
- Description: Example 53: Evaluation of the Effect of the Compound in Blocking the Binding of EED to H3K27Me3 by AlphaScreen (a-Screening) Method First, compound solutions with different concentration gradients are prepared. Compound powder is dissolved in DMSO to form mother liquor. […] Finally, AlphaScreen method is used for detection. […] Signals are read using an AlphaScreen detector on a Spectra max i3. […]
Lab note - cut at 0.007 µM for IC50: yes (1) if strictly below, no (0) if not.

Reference set, count: 10
INSERT INTO assay_data (compound, targetsystem, assignedlabel) VALUES
  ('Cc1cc(-c2cnc(NCc3c(F)ccc4c3CCO4)n3cnnc23)c2ncnn2c1C(C)(C)O', 'EED protein (full-length, His6 tag) binding to H3K27me3 polypeptide (Homo sapiens)', 'no (0)'),
  ('OC1(c2ccc(-c3cnc(NCc4c(F)ccc5c4CCO5)n4cnnc34)c3ncnn23)CC1', 'EED protein (full-length, His6 tag) binding to H3K27me3 polypeptide (Homo sapiens)', 'yes (1)'),
  ('OC1(c2ccc(-c3cnc(NCc4c(F)ccc5c4CCO5)n4cnnc34)c3ncnn23)CCC1', 'EED protein (full-length, His6 tag) binding to H3K27me3 polypeptide (Homo sapiens)', 'yes (1)'),
  ('CCC(C)(O)c1ccc(-c2cnc(NCc3c(F)ccc4c3CCO4)n3cnnc23)c2ncnn12 (single isomer, unassigned) [Compound b]', 'EED protein (full-length, His6 tag) binding to H3K27me3 polypeptide (Homo sapiens)', 'no (0)'),
  ('OC(c1ccc(-c2cnc(NCc3c(F)ccc4c3CCO4)n3cnnc23)c2ncnn12)(C(F)F)C(F)F', 'EED protein (full-length, His6 tag) binding to H3K27me3 polypeptide (Homo sapiens)', 'yes (1)'),
  ('Cc1nc2c(-c3cnc(NCc4c(F)ccc5c4CCO5)n4cnnc34)cnc(C(C)(C)O)n2n1', 'EED protein (full-length, His6 tag) binding to H3K27me3 polypeptide (Homo sapiens)', 'no (0)'),
  ('Cc1ccc(-c2cnc(NCc3c(F)ccc4c3CCO4)n3cnnc23)c2ncnn12', 'EED protein (full-length, His6 tag) binding to H3K27me3 polypeptide (Homo sapiens)', 'no (0)'),
  ('CC(O)(CF)c1ccc(-c2cnc(NCc3c(F)ccc4c3CCO4)n3cnnc23)c2ncnn12 (stereo not shown)', 'EED protein (full-length, His6 tag) binding to H3K27me3 polypeptide (Homo sapiens)', 'yes (1)'),
  ('CCC(O)(CC)c1ccc(-c2cnc(NCc3c(F)ccc4c3CCO4)n3cnnc23)c2ncnn12', 'EED protein (full-length, His6 tag) binding to H3K27me3 polypeptide (Homo sapiens)', 'yes (1)'),
  ('CCC(O)c1ccc(-c2cnc(NCc3c(F)ccc4c3CCO4)n3cnnc23)c2ncnn12 (single isomer, unassigned) [Compound f]', 'EED protein (full-length, His6 tag) binding to H3K27me3 polypeptide (Homo sapiens)', 'yes (1)');

Lookup: Confirm or reject: IC50 of CCC(C)(O)c1ccc(-c2cnc(NCc3c(F)ccc4c3CCO4)n3cnnc23)c2ncnn12 (single isomer, unassigned) [Compound a] lies strictly below 0.007 µM
Found: yes (1)

Lookup: Regarding CC(C)(O)c1ncc(-c2cnc(NCc3c(F)ccc4c3CCO4)n3cnnc23)c2ncnn12 , kindly confirm whether its IC50 is beneath 0.007 µM.
Found: yes (1)

# credit: patent US20240182492A1
